Assay: Oral bioavailability studies in marmosets (plasma concentration by bioassay)
Format: in vivo
Conditions: marmoset, plasma, iv, 1 mg/kg, marmoset, IV at 1 mg/kg, Test Run C, 30 min, individual animals; read-out: Plasma Concentrations
PARAMETER: concentration at 30 min (ng/mL)
Dear colleague, please return just the value in ng/mL, with no unit written.

Exam item: Quickly give me recorded concentration at 30 min for C#CC[C@H](NC(=O)C(CC(=O)N(C)CCN(C)C)Cc1ccccc1)C(=O)NC(CC1CCCCC1)[C@@H](O)C(O)CC(C)C (relative stereo) [Example 1]
Marked response: 5860

====

Test: Oral bioavailability studies in dogs (plasma concentration by bioassay)
Type: in vivo
Details: dog, plasma, iv, 1 mg/kg, IV at 1 mg/kg, 24 hr, individual animals, read-out: Estimated Plasma Concentration
PARAMETER: concentration at 24 h (ng/mL)
Provide only the numeric value, understood in ng/mL.

Exam item: Determine from records and report concentration at 24 h for C#CC[C@H](NC(=O)C(CC(=O)N(C)CCN(C)C)Cc1ccccc1)C(=O)NC(CC1CCCCC1)[C@@H](O)C(O)CC(C)C (relative stereo) [Example 1]
Marked response: 2.5

====

Test: Oral bioavailability studies in marmosets (plasma concentration by bioassay)
Format: in vivo
Settings: marmoset, plasma, oral, 10 mg/kg, marmoset, IG at 10 mg/kg, Test Run A, 8 hr, individual animals; read-out: Plasma Concentrations
PARAMETER: concentration at 8 h (ng/mL)
Supply the numeric figure in ng/mL, leaving out any unit text.

Exam item: Answer with reported concentration at 8 h of C#CC[C@H](NC(=O)C(CC(=O)N(C)CCN(C)C)Cc1ccccc1)C(=O)NC(CC1CCCCC1)[C@@H](O)C(O)CC(C)C (relative stereo)
Marked response: 3570

====

Test: Oral bioavailability studies in dogs (plasma concentration by bioassay)
Type: in vivo
Conditions: dog, plasma, iv, 1 mg/kg, IV at 1 mg/kg, 2 hr, individual animals, read-out: Estimated Plasma Concentration
PARAMETER: concentration at 2 h (ng/mL)
Field: numeric (ng/mL). Do not append units.

Exam item: Give a short answer stating reported concentration at 2 h for C#CC[C@H](NC(=O)C(CC(=O)N(C)CCN(C)C)Cc1ccccc1)C(=O)NC(CC1CCCCC1)[C@@H](O)C(O)CC(C)C (relative stereo) .
Marked response: 48.8

====

Test: Oral bioavailability studies in dogs (plasma concentration by bioassay)
Assay type: in vivo
Conditions: dog, plasma, iv, 1 mg/kg, IV at 1 mg/kg, 4 hr, individual animals, read-out: Estimated Plasma Concentration
PARAMETER: concentration at 4 h (ng/mL)
Kindly answer with a numeric value in ng/mL, unit omitted.

Exam item: State its concentration at 4 h for this compound: C#CC[C@H](NC(=O)C(CC(=O)N(C)CCN(C)C)Cc1ccccc1)C(=O)NC(CC1CCCCC1)[C@@H](O)C(O)CC(C)C (relative stereo) [Example 1]
Marked response: 18.6

====

Assay: Oral bioavailability studies in dogs (plasma concentration by bioassay)
Type: in vivo
Settings: dog, plasma, oral, 10 mg/kg, IG at 10 mg/kg, 8 hr, individual animals, read-out: Estimated Plasma Concentration
PARAMETER: concentration at 8 h (ng/mL)
Record the value in ng/mL, omitting the unit from your answer.

Exam item: Supply reported concentration at 8 h belonging to this compound: C#CC[C@H](NC(=O)C(CC(=O)N(C)CCN(C)C)Cc1ccccc1)C(=O)NC(CC1CCCCC1)[C@@H](O)C(O)CC(C)C (relative stereo)
Marked response: 33.5

====

Assay: Oral bioavailability studies in dogs (plasma concentration by bioassay)
Assay type: in vivo
Details: dog, plasma, iv, 1 mg/kg, IV at 1 mg/kg, 10 min, individual animals, read-out: Estimated Plasma Concentration
PARAMETER: concentration at 10 min (µg/mL)
Give the number; µg/mL is assumed, so skip it.

Exam item: Report measured concentration at 10 min; entry is C#CC[C@H](NC(=O)C(CC(=O)N(C)CCN(C)C)Cc1ccccc1)C(=O)NC(CC1CCCCC1)[C@@H](O)C(O)CC(C)C (relative stereo)
Marked response: 0.299

====

Experiment: Oral bioavailability studies in marmosets (plasma concentration by bioassay)
Assay type: in vivo
Conditions: marmoset, plasma, oral, 10 mg/kg, marmoset, IG at 10 mg/kg, Test Run A, 30 min, individual animals; read-out: Plasma Concentrations
PARAMETER: concentration at 30 min (ng/mL)
Note: unit ng/mL is implicit; provide only the numeric part.

Exam item: Identify measured concentration at 30 min corresponding to C#CC[C@H](NC(=O)C(CC(=O)N(C)CCN(C)C)Cc1ccccc1)C(=O)NC(CC1CCCCC1)[C@@H](O)C(O)CC(C)C (relative stereo) [Example 1]
Marked response: 9860

====

Assay: Oral bioavailability studies in marmosets (plasma concentration by bioassay)
Format: in vivo
Details: marmoset, plasma, oral, 10 mg/kg, marmoset, IG at 10 mg/kg, Test Run A, 3 hr, individual animals; read-out: Plasma Concentrations
PARAMETER: concentration at 3 h (ng/mL)
Just the number please, in ng/mL, no unit attached.

Exam item: Please list concentration at 3 h recorded for the molecule C#CC[C@H](NC(=O)C(CC(=O)N(C)CCN(C)C)Cc1ccccc1)C(=O)NC(CC1CCCCC1)[C@@H](O)C(O)CC(C)C (relative stereo)
Marked response: 7050

====

Experiment: Oral bioavailability studies in marmosets (plasma concentration by bioassay)
Format: in vivo
Details: marmoset, plasma, iv, 1 mg/kg, marmoset, IV at 1 mg/kg, Test Run C, 1 hr, individual animals; read-out: Plasma Concentrations
PARAMETER: concentration at 1 h (ng/mL)
// units = ng/mL; emit number, no label

Exam item: # return recorded concentration at 1 h for input C#CC[C@H](NC(=O)C(CC(=O)N(C)CCN(C)C)Cc1ccccc1)C(=O)NC(CC1CCCCC1)[C@@H](O)C(O)CC(C)C (relative stereo)
Marked response: 3090

====

Assay: Oral bioavailability studies in marmosets (plasma concentration by bioassay)
Assay type: in vivo
Settings: monkey, plasma; marmosets; read-out: terminal half-life (converted)
PARAMETER: half-life (h)
Answer in h, number only, no unit symbol.

Exam item: Output measured half-life for this item: C#CC[C@H](NC(=O)C(CC(=O)N(C)CCN(C)C)Cc1ccccc1)C(=O)NC(CC1CCCCC1)[C@@H](O)C(O)CC(C)C (relative stereo) [Example 1]
Marked response: 1.5

====

Test: Oral bioavailability studies in marmosets (plasma concentration by bioassay)
Format: in vivo
Settings: marmoset, plasma, iv, 1 mg/kg, marmoset, IV at 1 mg/kg, Test Run C, 2 min, individual animals; read-out: Plasma Concentrations
PARAMETER: concentration at 2 min

Exam item: Using known records, supply concentration at 2 min for C#CC[C@H](NC(=O)C(CC(=O)N(C)CCN(C)C)Cc1ccccc1)C(=O)NC(CC1CCCCC1)[C@@H](O)C(O)CC(C)C (relative stereo) [Example 1]
Marked response: 13700 ng/mL

====

Test: Oral bioavailability studies in marmosets (plasma concentration by bioassay)
Assay type: in vivo
Conditions: marmoset, plasma, oral, 10 mg/kg, marmoset, IG at 10 mg/kg, 3 hr; Test Run B; read-out: Plasma Concentrations, Mean ± SE
PARAMETER: concentration at 3 h (ng/mL)
Answer format: numeric, ng/mL implied, no suffix.

Exam item: Item C#CC[C@H](NC(=O)C(CC(=O)N(C)CCN(C)C)Cc1ccccc1)C(=O)NC(CC1CCCCC1)[C@@H](O)C(O)CC(C)C (relative stereo) : provide concentration at 3 h
Marked response: 4510
